- experimental target: T1, human GIP receptor (human) (UniProt P48546)
- T1 sequence (looked up): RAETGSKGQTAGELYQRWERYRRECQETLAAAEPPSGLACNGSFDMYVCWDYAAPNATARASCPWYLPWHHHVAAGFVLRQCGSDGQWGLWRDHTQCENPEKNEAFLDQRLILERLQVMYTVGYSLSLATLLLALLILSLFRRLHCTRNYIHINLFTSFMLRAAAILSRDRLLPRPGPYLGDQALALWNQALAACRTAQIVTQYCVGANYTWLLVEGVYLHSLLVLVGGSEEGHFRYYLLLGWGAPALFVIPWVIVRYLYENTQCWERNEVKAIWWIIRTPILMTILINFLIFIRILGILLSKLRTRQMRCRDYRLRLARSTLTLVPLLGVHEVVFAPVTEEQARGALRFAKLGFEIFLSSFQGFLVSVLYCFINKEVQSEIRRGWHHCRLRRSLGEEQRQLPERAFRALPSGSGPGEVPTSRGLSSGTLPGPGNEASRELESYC
- assay name: cell-based or functional assay
observation type: cAMP Rel EC50 (receptor-expressing HEK-293 cells, 1% HSA)

{"binder": "YXQGTXTSDYXELLDKKAQXAFIEYLEEGGPSSGAPPPE (Aib, αMeF(2F), αMeS; lipidated Lys; C-terminal amide; synthetic construct; SITE 2: note = 2-Aminoisobutyric Acid; SITE 6: note = alpha-methyl-2-fluoro-L-phenylalanine; SITE 11: note = alpha-methyl-L-serine; SITE 17: note = Lysine is chemically modified through conjugation of the epsilon-amino group of the Lysine side chain with (2-[2-(2-Amino-ethoxy)-e)) [Example 467]", "result": "10.7 nM"}
{"binder": "YXQGTXTSDXXIXLDXKAQXNFIEYLIEGGPSSGEPPPEGE (synthetic construct; SITE 2: note = 2-Aminoisobutyric Acid; SITE 6: note = alpha-methyl-2-fluoro-L-phenylalanine; SITE 10: note = 3-(4-Pyridyl)-L-alanine; SITE 11: note = alpha-methyl-L-serine; SITE 13: note = alpha-methyl-leucine; SITE 16: note = L-ornithine; SITE 17: note = Lysine is chemically mo) [Example 483]", "result": "1.17 nM"}
{"binder": "YXQGTXTSDYXILLDKKAQXAFIEYLEEGGPSSGAPPPE (non-natural residues; (AEEA)2-γGlu-C18 diacid on Lys; amide; synthetic construct; SITE 2: note = 2-Aminoisobutyric Acid; SITE 6: note = alpha-methyl-2-fluoro-L-phenylalanine; SITE 11: note = alpha-methyl-L-serine; SITE 17: note = Lysine is chemically modified through conjugation of the epsilon-amino group of the Lysine side chain with (2-[2-(2-Amino-ethoxy)-e)) [Example 468]", "result": "4.76 nM"}
{"binder": "YXQGTXTSDXXILLDKKAQXAFIEYLEEGGPSSGAPPPE (acylated Lys, C-terminal amide, non-natural residues; synthetic construct; SITE 2: note = 2-Aminoisobutyric Acid; SITE 6: note = alpha-methyl-2-fluoro-L-phenylalanine; SITE 10: note = 3-(3-Pyridyl)-L-alanine; SITE 11: note = alpha-methyl-L-serine; SITE 17: note = Lysine is chemically modified through conjugation of the epsilon-amino group of the Lysine) [Example 465]", "result": "44.6 nM"}
{"binder": "HXQGTXTSDXXIXLDXKAQXNFIEYLLEGGPSSGEPPPE (synthetic construct; SITE 2: note = 2-Aminoisobutyric Acid; SITE 6: note = alpha-methyl-2-fluoro-L-phenylalanine; SITE 10: note = 3-(4-Pyridyl)-L-alanine; SITE 11: note = alpha-methyl-L-serine; SITE 13: note = alpha-methyl-leucine; SITE 16: note = L-ornithine; SITE 17: note = Lysine is chemically mo) [Example 478]", "result": "26 nM"}
{"binder": "YXQGTXTSDXXIXLDXKAQXXFIEYLIEGGPSSGAPEPSEG (synthetic construct; SITE 2: note = 2-Aminoisobutyric Acid; SITE 6: note = alpha-methyl-2-fluoro-L-phenylalanine; SITE 10: note = 3-(4-Pyridyl)-L-alanine; SITE 11: note = alpha-methyl-L-serine; SITE 13: note = alpha-methyl-leucine; SITE 16: note = L-ornithine; SITE 17: note = Lysine is chemically mo) [Example 492]", "result": "0.84 nM"}
{"binder": "YXQGTXTSDXXIXLDXKAQXNFIEYLIEGGPSSGEPPPE (synthetic construct; SITE 2: note = 2-Aminoisobutyric Acid; SITE 6: note = alpha-methyl-2-fluoro-L-phenylalanine; SITE 10: note = 3-(4-Pyridyl)-L-alanine; SITE 11: note = alpha-methyl-L-serine; SITE 13: note = alpha-methyl-leucine; SITE 16: note = L-ornithine; SITE 17: note = Lysine is chemically mo) [Example 449]", "result": "1.66 nM"}
{"binder": "YXQGTXTSDXSIXLDKKAQXAFIEYLEEGGPSSGEPPPE (synthetic construct; SITE 2: note = 2-Aminoisobutyric Acid; SITE 6: note = alpha-methyl-2-fluoro-L-phenylalanine; SITE 10: note = 3-(4-Pyridyl)-L-alanine; SITE 13: note = alpha-methyl-leucine; SITE 17: note = Lysine is chemically modified through conjugation of the epsilon-amino group of the Lysine) [Example 487]", "result": "2.26 nM"}
{"binder": "YXQGTXTSDXSIXLDXKAQXAFIEYLEEGGPSSGEPPPS (synthetic construct; SITE 2: note = 2-Aminoisobutyric Acid; SITE 6: note = alpha-methyl-2-fluoro-L-phenylalanine; SITE 10: note = 3-(4-Pyridyl)-L-alanine; SITE 13: note = alpha-methyl-leucine; SITE 16: note = L-ornithine; SITE 17: note = Lysine is chemically modified through conjugation of the epsil) [Example 486]", "result": "2.57 nM"}
{"binder": "YXQGTXTSDXXIXLDXKAQXNFIEYLIEGGPSSGEPPPEEG (synthetic construct; SITE 2: note = 2-Aminoisobutyric Acid; SITE 6: note = alpha-methyl-2-fluoro-L-phenylalanine; SITE 10: note = 3-(4-Pyridyl)-L-alanine; SITE 11: note = alpha-methyl-L-serine; SITE 13: note = alpha-methyl-leucine; SITE 16: note = L-ornithine; SITE 17: note = Lysine is chemically mo) [Example 482]", "result": "1.58 nM"}
{"binder": "YXQGTXTSDXXIXLDXKAQXXFIEYLLEGGPSSGEPPPE (synthetic construct; SITE 2: note = 2-Aminoisobutyric Acid; SITE 6: note = alpha-methyl-2-fluoro-L-phenylalanine; SITE 10: note = 3-(4-Pyridyl)-L-alanine; SITE 11: note = alpha-methyl-L-serine; SITE 13: note = alpha-methyl-leucine; SITE 16: note = L-ornithine; SITE 17: note = Lysine is chemically mo) [Example 460]", "result": "8.93 nM"}
{"binder": "YXQGTXTSDXXEXLDXKAQXXFIEXLIEGGPSSGEPPPE (synthetic construct; SITE 2: note = 2-Aminoisobutyric Acid; SITE 6: note = alpha-methyl-2-fluoro-L-phenylalanine; SITE 10: note = 3-(4-Pyridyl)-L-alanine; SITE 11: note = alpha-methyl-L-serine; SITE 13: note = alpha-methyl-leucine; SITE 16: note = L-ornithine; SITE 17: note = Lysine is chemically mo) [Example 447]", "result": "1.81 nM"}
{"binder": "YXQGTXTSDXSIXLDXKAQXXFIEXLIEGGPSSGEPPPEEG (synthetic construct; SITE 2: note = 2-Aminoisobutyric Acid; SITE 6: note = alpha-methyl-2-fluoro-L-phenylalanine; SITE 10: note = 3-(4-Pyridyl)-L-alanine; SITE 13: note = alpha-methyl-leucine; SITE 16: note = L-ornithine; SITE 17: note = Lysine is chemically modified through conjugation of the epsil) [Example 475]", "result": "1.85 nM"}
{"binder": "YXQGTXTSDXXIXLDXKAQXNFIEXLIEGGPSSGEPEPSEG (synthetic construct; SITE 2: note = 2-Aminoisobutyric Acid; SITE 6: note = alpha-methyl-2-fluoro-L-phenylalanine; SITE 10: note = 3-(4-Pyridyl)-L-alanine; SITE 11: note = alpha-methyl-L-serine; SITE 13: note = alpha-methyl-leucine; SITE 16: note = L-ornithine; SITE 17: note = Lysine is chemically mo) [Example 473]", "result": "1.11 nM"}
{"binder": "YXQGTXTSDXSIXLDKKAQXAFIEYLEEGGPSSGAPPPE (non-natural residues; acylated Lys; C-terminal amide; synthetic construct; SITE 2: note = 2-Aminoisobutyric Acid; SITE 6: note = alpha-methyl-2-fluoro-L-phenylalanine; SITE 10: note = 4-nitro-L-phenylalanine; SITE 13: note = alpha-methyl-leucine; SITE 17: note = Lysine is chemically modified through conjugation of the epsilon-amino group of the Lysine) [Example 495]", "result": "5.74 nM"}
{"binder": "YXQGTXTSDYXILLDKKAQXAFIEYLEEGGPSSGEPPPE (synthetic construct; SITE 2: note = 2-Aminoisobutyric Acid; SITE 6: note = alpha-methyl-2-fluoro-L-phenylalanine; SITE 11: note = alpha-methyl-L-serine; SITE 17: note = Lysine is chemically modified through conjugation of the epsilon-amino group of the Lysine side chain with (2-[2-(2-Amino-ethoxy)-e)) [Example 469]", "result": "4.24 nM"}
{"binder": "YXQGTXTSDXSIXLDXKAQXXFIEYLIEGGPSSGEPPPSEG (synthetic construct; SITE 2: note = 2-Aminoisobutyric Acid; SITE 6: note = alpha-methyl-2-fluoro-L-phenylalanine; SITE 10: note = 3-(4-Pyridyl)-L-alanine; SITE 13: note = alpha-methyl-leucine; SITE 16: note = L-ornithine; SITE 17: note = Lysine is chemically modified through conjugation of the epsil) [Example 489]", "result": "1.25 nM"}
{"binder": "YXQGTXTSDXXIXLDXKAQXXFIEYLIEGGPSSGEPPPEEG (synthetic construct; SITE 2: note = 2-Aminoisobutyric Acid; SITE 6: note = alpha-methyl-2-fluoro-L-phenylalanine; SITE 10: note = 3-(4-Pyridyl)-L-alanine; SITE 11: note = alpha-methyl-L-serine; SITE 13: note = alpha-methyl-leucine; SITE 16: note = L-ornithine; SITE 17: note = Lysine is chemically mo) [Example 476]", "result": "1.29 nM"}
